src = ChEMBL document CHEMBL2311274

# Protocol Text: Inhibition of recombinant GGTase 2 (unknown origin) by scintillation counting in presence of [3H]GGPP
# Parameters: species or system Homo sapiens
IC50 listing for selected compounds.

| Compound | IC50 |
| --- | --- |
| O=P(O)(O)C(O)(Cc1cccnc1)P(=O)(O)O | > 1000 µM |
| O=P(O)(O)C(Cc1cn(Cc2ccc3ccccc3c2)nn1)P(=O)(O)O | > 2000 µM |
| CC(C)=CCCC(C)=CCn1cc(CC(P(=O)(O)O)P(=O)(O)O)nn1 (mixture of isomers) | > 2000 µM |
